system: ATP; test: switch fluorescence ratio, 500 uM ATP over buffer (Cy3 cluster intensity, sum of 5 cycles each) (fold (ratio)); higher = stronger signal-on switching upon ATP binding; sequences stand for … in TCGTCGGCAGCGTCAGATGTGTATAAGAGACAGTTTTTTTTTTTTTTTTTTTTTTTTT…TC; details: aptamer strand: ATP DNA aptamer (quencher-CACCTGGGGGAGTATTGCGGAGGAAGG + anchor), 100 nM annealed; ATP concentration: 500 uM;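 further: ATP exposure 15 min at 22 °C before imaging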
So I've got a bunch of sequences here, and I need their switch fluorescence ratio values.
One number for each entry.

Could you tell me switch fluorescence ratio for each of these sequences? They are listed below.
1. TGAGTATATA
2. GAATATAATG
3. TGGAAAGGGA
4. TTGGGGTGTG
5. GGAGAGGGCG
6. ATCATACCGG
7. TAGGATTTAG
8. GGAACCCGTG

[1.02, 0.978, 1.01, 1.01, 0.991, 1, 0.994, 0.997]

----------
test system: ATP; assay: switch fluorescence ratio, 500 uM ATP over buffer (Cy3 cluster intensity, sum of 5 cycles each) (fold (ratio)); higher = stronger signal-on switching upon ATP binding; sequences stand for … in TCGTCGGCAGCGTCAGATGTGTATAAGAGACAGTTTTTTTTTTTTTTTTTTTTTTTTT…TC; details: aptamer strand: ATP DNA aptamer (quencher-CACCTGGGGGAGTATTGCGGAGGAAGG + anchor), 100 nM annealed; ATP concentration: 500 uM;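 further: ATP exposure 15 min at 22 °C before imaging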
readout: switch fluorescence ratio
Numbers only.

Worked set:
GGGTCTAAGG = 1.01
ATTTGGAAGA = 1.01
GAAGTAGAGG = 1

Could you tell me switch fluorescence ratio for each of these sequences? They are listed below.
1. ACTTGTAGGC
2. GGATATTGGC

1: 1.01; 2: 0.977

Could you tell me switch fluorescence ratio for each of these sequences? They are listed below.
1. GGTGATGGTT
2. ATGGGGGTAT
3. GTTGTAAAGG
4. TTCTGATGGA

[0.986, 0.987, 1.02, 0.978]

Could you tell me switch fluorescence ratio for each of these sequences? They are listed below.
1. AGAACTTTTA
2. CCAGGAAGGT

1. 0.998
2. 1.02

Could you tell me switch fluorescence ratio for each of these sequences? They are listed below.
1. ATTGTCATGG
2. TATAGGGAAG
3. CAGAAGTCCA
4. GGGACCGGCA

[0.999, 1.02, 0.991, 1.01]

----------
tested on: ATP; test: switch fluorescence ratio, 500 uM ATP over buffer (Cy3 cluster intensity, sum of 5 cycles each) (fold (ratio)); higher = stronger signal-on switching upon ATP binding; sequences stand for … in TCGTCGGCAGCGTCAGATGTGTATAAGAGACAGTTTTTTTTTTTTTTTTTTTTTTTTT…TC; conditions: aptamer strand: ATP DNA aptamer (quencher-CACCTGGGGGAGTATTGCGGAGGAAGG + anchor), 100 nM annealed; ATP concentration: 500 uM;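 further: ATP exposure 15 min at 22 °C before imaging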
readout: switch fluorescence ratio
Numbers only.

Worked set:
TGTGGTGCAG = 1
TATTCTTGGG = 1
ATTTTGTTGT = 1.03
GTTGGTAGCC = 0.978
GGGCTTTATG = 0.986
AATTGAGTGT = 1.01
TTTTTCACTG = 1
GTGGGGGCCC = 0.993

Could you tell me switch fluorescence ratio for each of these sequences? They are listed below.
1. TTATGGGTTT
2. CTTTGAGACG
3. AGTTTTCCCT
4. AGTTGGGCGG
5. TGATTTGTTT

1: 1; 2: 0.978; 3: 1.01; 4: 1.02; 5: 1

Could you tell me switch fluorescence ratio for each of these sequences? They are listed below.
1. GGGAAGGCCA
2. TCTGTTATCA

1: 0.973; 2: 1

----------
So I've got a bunch of sequences here, and I need their switch fluorescence ratio values.
tested on: ATP; test: switch fluorescence ratio, 500 uM ATP over buffer (Cy3 cluster intensity, sum of 5 cycles each) (fold (ratio)); higher = stronger signal-on switching upon ATP binding; sequences stand for … in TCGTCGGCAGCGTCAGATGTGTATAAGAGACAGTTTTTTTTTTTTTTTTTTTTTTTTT…TC; conditions: aptamer strand: ATP DNA aptamer (quencher-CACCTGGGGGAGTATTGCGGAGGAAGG + anchor), 100 nM annealed; ATP concentration: 500 uM;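 further: ATP exposure 15 min at 22 °C before imaging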
One number for each entry.

GATGGTCGTT = 1.01

Could you tell me switch fluorescence ratio for each of these sequences? They are listed below.
1. TGATGTTGAA
2. TTCAAGTTTT
3. GGATTGTGAA

[0.999, 1.02, 1]

Could you tell me switch fluorescence ratio for each of these sequences? They are listed below.
1. GGGCAAACTT
2. TAGGGGGCAG
3. GGGGGGTCTT
4. TTTTTCGGCG
5. CGATTTCGTT
6. CCAGAATTAA
7. GTTTTATATG
8. ATGGAACGGT

1.02
1
1.01
1.01
0.984
0.976
0.978
1

Could you tell me switch fluorescence ratio for each of these sequences? They are listed below.
1. AAATGTTAAG
2. ATTTTTGGTC
3. TGGAAATCGC
4. GGTGAAATTG
5. TCGAAAAAGG
6. ACGTAGGGGG
7. TTGGTCTGGT
8. GTTGGACGCT

1: 1.01; 2: 0.986; 3: 1; 4: 1; 5: 1; 6: 0.988; 7: 0.973; 8: 0.986

Could you tell me switch fluorescence ratio for each of these sequences? They are listed below.
1. TCGGTTAATA
2. GGGGTACAGG
3. TGTTTGTGTT
4. AGGGTTGGGA

1: 1.02; 2: 1.01; 3: 0.977; 4: 0.996

----------
So I've got a bunch of sequences here, and I need their switch fluorescence ratio values.
tested on: ATP; assay: switch fluorescence ratio, 500 uM ATP over buffer (Cy3 cluster intensity, sum of 5 cycles each) (fold (ratio)); higher = stronger signal-on switching upon ATP binding; sequences stand for … in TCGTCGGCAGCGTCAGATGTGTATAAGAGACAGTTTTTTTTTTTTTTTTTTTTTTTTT…TC; details: aptamer strand: ATP DNA aptamer (quencher-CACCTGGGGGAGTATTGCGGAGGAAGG + anchor), 100 nM annealed; ATP concentration: 500 uM;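 further: ATP exposure 15 min at 22 °C before imaging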
Give bare numbers.

Worked set:
TATATTTGTT = 0.997
TTCCATCCAT = 1.01
TGCGAGGGTT = 1.01
GGAATTTCTT = 1.01
ATTATATTGC = 1.01
TTTGTTTTGT = 1.01
GAGGGGTTAG = 0.978
TTTGTCGACC = 0.992

Could you tell me switch fluorescence ratio for each of these sequences? They are listed below.
1. GGGGGGGAAT
2. TATTTTAAGT
3. GCTGTAGTGG
4. TGCATCGGGG
5. TGCCGGGTGG

1: 1; 2: 0.993; 3: 0.998; 4: 0.983; 5: 1

Could you tell me switch fluorescence ratio for each of these sequences? They are listed below.
1. AATGGGGAAA
2. AATGTAATTA
3. AGAAGTTAGG
4. TTTTATGTGT
5. CAGGCTAGGC

1
1.01
0.973
0.992
1.02

Could you tell me switch fluorescence ratio for each of these sequences? They are listed below.
1. CGGATCGATT
2. TTAGGCAGAT
3. GAAAGAGGGT
4. TAACGAAACT
5. GGGGAACGGT
6. AGACCAATTC
7. TTCAGTTTGG
8. GGGGAGGGCG

0.991
1.24
1.03
1.26
1.03
1.09
1.01
0.967

Could you tell me switch fluorescence ratio for each of these sequences? They are listed below.
1. GGCCGGCTAA
2. GGTTGTGTGT
3. CAATACTTG
4. TTACGCAATT
5. ATACTCGCGT
6. AACTGTTTCG
7. AAAGCGGGTC

[0.997, 1, 1.03, 4.42, 1.01, 0.971, 1.04]

----------
system: ATP; assay: switch fluorescence ratio, 500 uM ATP over buffer (Cy3 cluster intensity, sum of 5 cycles each) (fold (ratio)); higher = stronger signal-on switching upon ATP binding; sequences stand for … in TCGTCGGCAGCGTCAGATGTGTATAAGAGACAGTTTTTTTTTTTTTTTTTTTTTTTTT…TC; details: aptamer strand: ATP DNA aptamer (quencher-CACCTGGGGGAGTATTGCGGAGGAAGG + anchor), 100 nM annealed; ATP concentration: 500 uM;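 further: ATP exposure 15 min at 22 °C before imaging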
So I've got a bunch of sequences here, and I need their switch fluorescence ratio values.
Answers are plain numbers.

Worked set:
TTGGGGCACA = 1.01
GTCAATTGCA = 0.999
TCGTTAATCA = 0.984

Query `TTAAGGCGGG` on ATP; switch fluorescence ratio returned: 1
